Reported IC50 by item:
biological target: Cannabinoid receptor 1 (Homo sapiens); assay: Antagonist activity at human CB1 receptor expressed in CHO-K1 cell membrane in presence of CP55940 by GTP-gamma-S assay; format: functional, cell membranes
OUTCOME_MEASURE: IC50 (nM)

>>> quantitative_result("C[C@@H](NC(=O)c1nn(-c2ccccc2Cl)c(-c2ccc(Cl)cc2)c1Cc1nn[nH]n1)c1ccc(OC(F)(F)F)cc1")
9.6
>>> quantitative_result("O=C(O)Cc1c(C(=O)N2CCC(c3ccc(F)cc3)CC2)nn(-c2ccccc2Cl)c1-c1ccc(Cl)cc1")
18
>>> quantitative_result("O=C(O)Cc1c(C(=O)N2CCC(c3ccccc3F)CC2)nn(-c2ccccc2Cl)c1-c1ccc(Cl)cc1")
4.8
>>> quantitative_result("C[C@@H](NC(=O)c1nn(-c2ccccc2Cl)c(-c2ccc(Cl)cc2)c1Cc1nn[nH]n1)c1ccc(C(F)(F)F)cc1")
6.7
>>> quantitative_result("O=C(O)Cc1c(C(=O)N2CCC(c3cccc(F)c3)CC2)nn(-c2ccccc2Cl)c1-c1ccc(Cl)cc1")
8.1

* * *

target: Cannabinoid receptor 1 (Homo sapiens, UniProt P21554); experiment: Inverse agonist activity at human CB1 receptor expressed in African green monkey COS7 cells co-expressing G-protein in presence of CP55940 by IP3 assay; type: functional, cell membranes, Membrane
Sequence (P21554 whole entry): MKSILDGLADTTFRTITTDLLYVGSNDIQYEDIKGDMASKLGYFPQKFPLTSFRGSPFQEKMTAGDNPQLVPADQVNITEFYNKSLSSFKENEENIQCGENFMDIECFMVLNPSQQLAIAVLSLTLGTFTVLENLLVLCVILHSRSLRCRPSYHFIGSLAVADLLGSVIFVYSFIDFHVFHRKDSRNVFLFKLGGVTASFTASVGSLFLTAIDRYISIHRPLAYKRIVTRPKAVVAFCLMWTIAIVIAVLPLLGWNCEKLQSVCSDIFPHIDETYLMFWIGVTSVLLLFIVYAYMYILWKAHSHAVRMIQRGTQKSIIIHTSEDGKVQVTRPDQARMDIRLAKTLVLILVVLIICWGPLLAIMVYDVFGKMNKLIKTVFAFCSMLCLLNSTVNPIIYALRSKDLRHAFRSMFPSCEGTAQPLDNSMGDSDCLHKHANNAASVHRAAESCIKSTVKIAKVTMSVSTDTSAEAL
pIC50: −log10 of the molar value.
Decide using pIC50: a value greater than or equal to 8 is condition met, a smaller one is condition not met.

>>> category_label("O=C(O)Cc1c(C(=O)N2CCC(Oc3cccc(C(F)(F)F)c3)CC2)nn(-c2ccccc2Cl)c1-c1ccc(Cl)cc1")
"condition not met"
>>> category_label("O=C(O)Cc1c(C(=O)N2CCC(c3ccccc3F)CC2)nn(-c2ccccc2Cl)c1-c1ccc(Cl)cc1")
"condition met"
>>> category_label("O=C(O)Cc1c(C(=O)N2CCC(c3ccc(F)cc3)CC2)nn(-c2ccccc2Cl)c1-c1ccc(Cl)cc1")
"condition not met"
>>> category_label("C[C@@H](NC(=O)c1nn(-c2ccccc2Cl)c(-c2ccc(Cl)cc2)c1Cc1nn[nH]n1)c1ccc(Br)cc1")
"condition not met"
>>> category_label("O=C(c1nn(-c2ccccc2Cl)c(-c2ccc(Cl)cc2)c1Cc1nn[nH]n1)N1CCC(Oc2ccc(Cl)cc2)CC1")
"condition not met"
>>> category_label("O=C(O)Cc1c(C(=O)N2CCC(c3cccc(F)c3)CC2)nn(-c2ccccc2Cl)c1-c1ccc(Cl)cc1")
"condition met"
>>> category_label("N#Cc1cccc(OC2CCN(C(=O)c3nn(-c4ccccc4Cl)c(-c4ccc(Cl)cc4)c3CC(=O)O)CC2)c1")
"condition not met"
>>> category_label("C[C@@H](NC(=O)c1nn(-c2ccccc2Cl)c(-c2ccc(Cl)cc2)c1Cc1nn[nH]n1)c1ccc(F)c(Cl)c1")
"condition not met"
>>> category_label("O=C(c1nn(-c2ccccc2Cl)c(-c2ccc(Cl)cc2)c1Cc1nn[nH]n1)N1CCC(Oc2cccc(F)c2)CC1")
"condition not met"
>>> category_label("O=C(c1nn(-c2ccccc2Cl)c(-c2ccc(Cl)cc2)c1Cc1nn[nH]n1)N1CCC(c2ccccc2F)CC1")
"condition not met"
>>> category_label("NC(=O)Cc1c(C(=O)N2CCC(O)(c3ccc(F)cc3)CC2)nn(-c2ccccc2Cl)c1-c1ccc(Cl)cc1")
"condition met"
>>> category_label("O=C(c1nn(-c2ccccc2Cl)c(-c2ccc(Cl)cc2)c1Cc1nn[nH]n1)N1CCC(Oc2ccc(F)c(F)c2)CC1")
"condition not met"

* * *

assay: Drug concentration in DIO mouse brain at 10 mg/kg, po measured for 24 hrs; format: ADME, organism-based; settings: brain, read-out: Drug uptake
OUTCOME_MEASURE: concentration at 24 h (nM)

>>> quantitative_result("C[C@@H](NC(=O)c1nn(-c2ccccc2Cl)c(-c2ccc(Cl)cc2)c1Cc1nn[nH]n1)c1ccc(C(F)(F)F)cc1")
20

* * *

target: Cannabinoid receptor 1 (Homo sapiens); test: Inverse agonist activity at human CB1 receptor expressed in CHO-K1 cell membrane by GTP-gamma-S assay; format: functional, cell membranes
Reported log10 IC50 by item:
OUTCOME_MEASURE: log10 IC50 (log10 of the value in nM)

>>> quantitative_result("C[C@@H](NC(=O)c1nn(-c2ccccc2Cl)c(-c2ccc(Cl)cc2)c1CC(N)=O)c1ccc(C(F)(F)F)nc1")
-0.40
>>> quantitative_result("O=C(c1nn(-c2ccccc2Cl)c(-c2ccc(Cl)cc2)c1Cc1nn[nH]n1)N1CCC(Oc2ccc(F)c(F)c2)CC1")
1.90
>>> quantitative_result("O=C(O)Cc1c(C(=O)N2CCC(Oc3cccc(Cl)c3)CC2)nn(-c2ccccc2Cl)c1-c1ccc(Cl)cc1")
1.71
>>> quantitative_result("CCN1C(=O)OC2(CCN(C(=O)c3nn(-c4ccccc4Cl)c(-c4ccc(Cl)cc4)c3CC(N)=O)CC2)C1=O")
0.11
>>> quantitative_result("C[C@@H]1CC(O)(c2ccccc2F)C[C@H](C)N1C(=O)c1nn(-c2ccccc2Cl)c(-c2ccc(Cl)cc2)c1CC(N)=O (stereo partly specified)")
-0.15
>>> quantitative_result("O=C(O)Cc1c(C(=O)N2CCC(c3cccc(F)c3)CC2)nn(-c2ccccc2Cl)c1-c1ccc(Cl)cc1")
1.51
>>> quantitative_result("N#Cc1ccc(CNC(=O)c2nn(-c3ccccc3Cl)c(-c3ccc(Cl)cc3)c2CC(N)=O)cc1")
-0.52
>>> quantitative_result("C[C@@H](NC(=O)c1nn(-c2ccccc2Cl)c(-c2ccc(Cl)cc2)c1Cc1nnn[nH]1)c1cccc(F)c1")
1.93
>>> quantitative_result("CC(C)c1noc(C2(O)CCN(C(=O)c3nn(-c4ccccc4Cl)c(-c4ccc(Cl)cc4)c3CC(N)=O)CC2)n1")
-0.22
>>> quantitative_result("O=C(c1nn(-c2ccccc2Cl)c(-c2ccc(Cl)cc2)c1Cc1nn[nH]n1)N1CCC(Oc2cc(F)cc(F)c2)CC1")
1.84
>>> quantitative_result("C[C@@H](NC(=O)c1nn(-c2ccccc2Cl)c(-c2ccc(Cl)cc2)c1Cc1nn[nH]n1)c1ccc(C(F)(F)F)cc1")
1.38
>>> quantitative_result("CC(=O)N1CCC(NC(=O)c2nn(-c3ccccc3Cl)c(-c3ccc(Cl)cc3)c2CC(N)=O)CC1")
1.04
>>> quantitative_result("NC(=O)Cc1c(C(=O)N2CCC(O)(c3ccc(F)cc3)CC2)nn(-c2ccccc2Cl)c1-c1ccc(Cl)cc1")
-0.35
>>> quantitative_result("O=C(c1nn(-c2ccccc2Cl)c(-c2ccc(Cl)cc2)c1Cc1nn[nH]n1)N1CCC(c2ccccc2F)CC1")
2.11
>>> quantitative_result("O=C(O)Cc1c(C(=O)N2CCC(Oc3ccc(Cl)cc3)CC2)nn(-c2ccccc2Cl)c1-c1ccc(Cl)cc1")
1.48
>>> quantitative_result("O=C(c1nn(-c2ccccc2Cl)c(-c2ccc(Cl)cc2)c1Cc1nn[nH]n1)N1CCC(Oc2cccc(F)c2)CC1")
2.11

* * *

assay: Drug concentration in DIO mouse brain at 10 mg/kg, po measured for 6 hrs relative to plasma concentration; assay type: ADME, organism-based
OUTCOME_MEASURE: Drug uptake (%)

>>> quantitative_result("O=C(O)Cc1c(C(=O)N2CCC(c3ccccc3F)CC2)nn(-c2ccccc2Cl)c1-c1ccc(Cl)cc1")
0.6
>>> quantitative_result("C[C@@H](NC(=O)c1nn(-c2ccccc2Cl)c(-c2ccc(Cl)cc2)c1Cc1nn[nH]n1)c1ccc(OC(F)(F)F)cc1")
1.3
>>> quantitative_result("O=C(O)Cc1c(C(=O)N2CCC(c3ccc(F)cc3)CC2)nn(-c2ccccc2Cl)c1-c1ccc(Cl)cc1")
0.8
>>> quantitative_result("C[C@@H](NC(=O)c1nn(-c2ccccc2Cl)c(-c2ccc(Cl)cc2)c1Cc1nn[nH]n1)c1ccc(C(F)(F)F)cc1")
1.3

* * *

test: Tmax in NMRI mouse at 30 mg/kg, po; assay type: ADME, organism-based; conditions: in vivo
OUTCOME_MEASURE: Tmax (h)

>>> quantitative_result("C[C@@H](NC(=O)c1nn(-c2ccccc2Cl)c(-c2ccc(Cl)cc2)c1Cc1nn[nH]n1)c1ccc(C(F)(F)F)cc1")
2

* * *

Reported Activity by item:
assay: Subchronic toxicity in DIO mouse assessed as reduction in body weight at 10 mg/kg, po measured after 7 days; assay type: organism-based; set-up: scale not given: the % may be the effect or the level left; details: in vivo, 168 h, time 7 day
OUTCOME_MEASURE: Activity (%)

>>> quantitative_result("C[C@@H](NC(=O)c1nn(-c2ccccc2Cl)c(-c2ccc(Cl)cc2)c1Cc1nn[nH]n1)c1ccc(C(F)(F)F)cc1")
11.4
>>> quantitative_result("O=C(O)Cc1c(C(=O)N2CCC(c3ccc(F)cc3)CC2)nn(-c2ccccc2Cl)c1-c1ccc(Cl)cc1")
0.2
>>> quantitative_result("C[C@@H](NC(=O)c1nn(-c2ccccc2Cl)c(-c2ccc(Cl)cc2)c1Cc1nnn[nH]1)c1cccc(F)c1")
5.2
>>> quantitative_result("Cc1c(C(=O)NN2CCCCC2)nn(-c2ccc(Cl)cc2Cl)c1-c1ccc(Cl)cc1")
14.5
